Value source: patent US20230073301A1

Assay: in vivo
Conditions: pig, lung, right caudal lobe, intravenous, 4.28 mg/kg/hr
REPORTED PROPERTY: concentration at 72 h (ng/g)
Return type: number; implicit unit ng/g.

Ask: concentration at 72 h lookup needed for CC(=O)O[C@H]1C(=O)[C@@]2(C)[C@H]([C@H](OC(=O)c3ccccc3)[C@]3(O)C[C@H](OC(=O)[C@H](O)[C@@H](NC(=O)c4ccccc4)c4ccccc4)C(C)=C1C3(C)C)[C@]1(OC(C)=O)CO[C@@H]1C[C@@H]2O , thanks.
Result: 2720

* * *

Assay: GMX001 plasma PTX concentration after systemic infusion (LC/MS)
Type: in vivo, porcine
Conditions: pig, intravenous, 175 mg/m^2, Blood PTX concentration, systemic infusion, animal 19P0997, 24 hr
REPORTED PROPERTY: concentration at 24 h (ng/mL)
Return type: number; implicit unit ng/mL.

Ask: concentration at 24 h lookup needed for CC(=O)O[C@H]1C(=O)[C@@]2(C)[C@H]([C@H](OC(=O)c3ccccc3)[C@]3(O)C[C@H](OC(=O)[C@H](O)[C@@H](NC(=O)c4ccccc4)c4ccccc4)C(C)=C1C3(C)C)[C@]1(OC(C)=O)CO[C@@H]1C[C@@H]2O , thanks.
Result: 9110

* * *

Assay: GMX002 lung tissue PTX concentration after local lung lavage
Assay type: in vivo, porcine
Conditions: pig, lung tissue, other: local lung lavage (right lung, via catheter), 32000 ng/mL (lavage solution), PTX in lung tissue achieved, local administration (GMX002)
REPORTED PROPERTY: concentration at 20 min

Ask: concentration at 20 min lookup needed for CC(=O)O[C@H]1C(=O)[C@@]2(C)[C@H]([C@H](OC(=O)c3ccccc3)[C@]3(O)C[C@H](OC(=O)[C@H](O)[C@@H](NC(=O)c4ccccc4)c4ccccc4)C(C)=C1C3(C)C)[C@]1(OC(C)=O)CO[C@@H]1C[C@@H]2O , thanks.
Result: > 30000 ng/g

* * *

Experiment: GMX002 lung tissue PTX concentration after local lung lavage
Format: in vivo, porcine
Conditions: pig, lung, middle lobe of the treated right lung, 32000 ng/mL, Lung PTX concentration, RT Mid Lung, local lavage of right lung, 20 min; animal 19P1241; middle lobe believed blocked
REPORTED PROPERTY: concentration at 20 min (ng/g)
Return type: number; implicit unit ng/g.

Ask: concentration at 20 min lookup needed for CC(=O)O[C@H]1C(=O)[C@@]2(C)[C@H]([C@H](OC(=O)c3ccccc3)[C@]3(O)C[C@H](OC(=O)[C@H](O)[C@@H](NC(=O)c4ccccc4)c4ccccc4)C(C)=C1C3(C)C)[C@]1(OC(C)=O)CO[C@@H]1C[C@@H]2O , thanks.
Result: 749

* * *

Experiment: GMX001 plasma PTX concentration after systemic infusion (LC/MS)
Type: in vivo, porcine
Details: pig, intravenous, 175 mg/m^2, Blood PTX concentration, systemic infusion, animal 19P0997, 72 hr
REPORTED PROPERTY: concentration at 72 h

Ask: concentration at 72 h lookup needed for CC(=O)O[C@H]1C(=O)[C@@]2(C)[C@H]([C@H](OC(=O)c3ccccc3)[C@]3(O)C[C@H](OC(=O)[C@H](O)[C@@H](NC(=O)c4ccccc4)c4ccccc4)C(C)=C1C3(C)C)[C@]1(OC(C)=O)CO[C@@H]1C[C@@H]2O [PTX] , thanks.
Result: 713 ng/mL
